Estimated IC50, adhesion assay, n = 2 by entry:
- target under test: human αVβ6 integrin on cells (human, UniProt P06756 31-1048; P18564 22-788)
- Sequence (P06756 31-1048, chain 1 of 2): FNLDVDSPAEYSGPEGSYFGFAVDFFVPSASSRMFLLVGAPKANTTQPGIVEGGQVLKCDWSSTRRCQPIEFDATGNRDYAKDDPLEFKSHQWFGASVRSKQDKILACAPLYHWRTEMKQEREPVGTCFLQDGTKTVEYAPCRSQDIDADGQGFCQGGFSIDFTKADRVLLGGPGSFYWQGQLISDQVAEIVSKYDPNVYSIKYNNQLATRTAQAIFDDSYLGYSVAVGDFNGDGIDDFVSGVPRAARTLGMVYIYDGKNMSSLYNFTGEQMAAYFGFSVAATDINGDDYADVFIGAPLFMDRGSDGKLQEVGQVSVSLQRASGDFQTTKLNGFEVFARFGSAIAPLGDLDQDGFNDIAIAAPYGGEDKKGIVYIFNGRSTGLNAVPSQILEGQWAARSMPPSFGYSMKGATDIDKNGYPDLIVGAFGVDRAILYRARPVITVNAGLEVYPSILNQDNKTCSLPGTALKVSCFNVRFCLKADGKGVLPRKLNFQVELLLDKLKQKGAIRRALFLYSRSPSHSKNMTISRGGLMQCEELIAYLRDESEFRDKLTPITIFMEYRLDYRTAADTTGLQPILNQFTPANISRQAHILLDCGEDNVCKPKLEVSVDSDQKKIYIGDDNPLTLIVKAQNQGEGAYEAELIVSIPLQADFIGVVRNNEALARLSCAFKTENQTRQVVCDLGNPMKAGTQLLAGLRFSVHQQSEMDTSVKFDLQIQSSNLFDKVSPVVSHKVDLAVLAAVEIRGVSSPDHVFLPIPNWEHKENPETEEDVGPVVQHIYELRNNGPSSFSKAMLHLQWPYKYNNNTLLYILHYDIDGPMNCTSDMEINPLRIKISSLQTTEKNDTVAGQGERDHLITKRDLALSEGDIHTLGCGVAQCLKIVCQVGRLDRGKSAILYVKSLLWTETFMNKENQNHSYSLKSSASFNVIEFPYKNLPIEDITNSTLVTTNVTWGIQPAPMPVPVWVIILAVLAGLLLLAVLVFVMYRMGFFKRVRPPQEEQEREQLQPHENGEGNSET
- Sequence (P18564 22-788, chain 2 of 2): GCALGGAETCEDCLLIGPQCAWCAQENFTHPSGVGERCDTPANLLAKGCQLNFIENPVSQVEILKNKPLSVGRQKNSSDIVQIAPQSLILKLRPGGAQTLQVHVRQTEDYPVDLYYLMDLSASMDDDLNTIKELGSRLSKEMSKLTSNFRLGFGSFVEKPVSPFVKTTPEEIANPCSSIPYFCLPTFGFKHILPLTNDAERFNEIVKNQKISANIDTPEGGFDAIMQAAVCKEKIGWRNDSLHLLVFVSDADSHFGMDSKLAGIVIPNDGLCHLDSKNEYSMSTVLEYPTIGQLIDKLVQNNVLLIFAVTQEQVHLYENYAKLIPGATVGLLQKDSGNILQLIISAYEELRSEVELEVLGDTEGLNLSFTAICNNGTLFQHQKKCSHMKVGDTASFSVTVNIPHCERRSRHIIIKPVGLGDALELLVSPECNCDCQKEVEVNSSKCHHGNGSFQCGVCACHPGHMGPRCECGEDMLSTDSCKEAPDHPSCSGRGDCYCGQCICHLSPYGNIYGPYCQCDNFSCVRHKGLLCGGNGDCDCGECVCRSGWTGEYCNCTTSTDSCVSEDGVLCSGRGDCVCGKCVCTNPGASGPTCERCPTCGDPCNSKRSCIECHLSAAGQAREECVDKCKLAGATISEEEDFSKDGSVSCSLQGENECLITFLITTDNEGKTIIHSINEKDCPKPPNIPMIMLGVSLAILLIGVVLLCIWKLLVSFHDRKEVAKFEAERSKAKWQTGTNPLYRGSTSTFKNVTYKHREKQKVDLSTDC
- test summary: cell-based or functional assay
# number only, unit µg/mL dropped from output

Solved cases (2 shown):
I have this binder here, sc 188 (antibody, V domains shown, kappa light chain) VH: QVQLQESGPGLVKPSQTLSLTCTVSGGSISSGVYYWTWIRQHPGNGLEWIGYIYYSGSTSYNPSLKSRVTISVDTSKKQFSLNLTSVTAADTAVYYCAREGPLRGDYYYGLDVWGQGTTVTVSS VL: EIVLTQSPGTLSLSPGERATLSCRAGQTISSRYLAWYQQKPGQAPRPLIYGASSRATGIPDRFSGSGSGTDFTLTISRLEPEDFAVYYCQQYGSSPRTFGQGTKVEIK , and I need its recorded Estimated IC50, adhesion assay, n = 2.
0.026

I have this binder here, sc 161 (antibody, V domains shown, kappa light chain) VH: EVQLVQSGAEVKKPGESLKISCKGSGYSFTSYWIGWVRQMPGKGLEWMGIIYPGDSDTRYSPSFQGQVTISADKSISTAYLQWSSLKASDTAMYYCARHGIAAAGFYYYYMDVWGQGTTVTVSS VL: EIVLTQSPDTLSLSPGERASLSCRASQNVNRNYLVWYQQKPGQAPRLLIYGTSNRATGIPDRFSGSGSGTDFTLTISRLEPEDFAVYYCQQCGSLPFTFGPGTKVDIKR , and I need its recorded Estimated IC50, adhesion assay, n = 2.
0.137

Further cases:
I have this binder here, sc 277 (antibody, V domains shown, lambda light chain) VH: EVQLVQSGAEVKKPGESLKISCKGSGYSFPSYWIGWVRQMPGKGLEWMGIIYPGDSDTRYSPSFQGQVTISADKSISTAYLQWSSLKASDTAMYYCARHPMEDGMDVWGQGTTVTVSS VL: SYELTQPPSVSVSPGQTARITCSGDALPKKYAFWYQQKSGQAPVLVIYDDNKRPSGIPERFSGSSSGTMATLTITGAQVEDEADYYCYSTDSSGHHVFGGGTKLTVL , and I need its recorded Estimated IC50, adhesion assay, n = 2.
0.54

I have this binder here, sc 254 (antibody, V domains shown, kappa light chain) VH: QVQLQESGPGLVKPSQTLSLTCTVSGGSISSGGYYWSWIRQHPGKGLEWIGYIYYSGSTYYNPSLKSRVTISVDTSKNQFSLKLSSVTAADTAMYYCARYRGPAAGRGDFYYFGMDVWGQGTTVTVSS VL: DIVMTQTPLSLSVTPGQPASIFCKSSQSLLNSDGKTYLCWYLQKPGQPPQLLIYEVSNRFSGVPDRFSGSGSGTDFTLKISRVEAEDVGVYYCMQGIQLPWAFFGQGTKVEIK , and I need its recorded Estimated IC50, adhesion assay, n = 2.
0.037

I have this binder here, sc 298 (antibody, V domains shown, lambda light chain) VH: QVQLVESGGGVVQPGRSLRLSCAASGFTFSSYGMHWVRQAPGKGLEWVAVIWYGGSNKYYADSVKGRFTISRDNSKNTLYLQMNSLRAEDTAVYYCARDLAARRGDYYYYGMDVWGQGTTVTVSS VL: SSELTQDPVVSVALGQTVRITCQGDSLRSYYLSWYQQKPGQAPVLVIYGKNNRPSGIPDRFSGSNSGNTASLTITGAQAEDEADYYCNSRDSSGNHLFGGGTKLTVL , and I need its recorded Estimated IC50, adhesion assay, n = 2.
0.025
